- experimental_system: T1, human MSLN-R3-his protein (human, UniProt Q13421 487-598)
- T1 construct: it is put last here; also called human MSLN-R3 protein; hMSLN-R3-his; not shown: His tag
- T1 sequence (Q13421 495-606): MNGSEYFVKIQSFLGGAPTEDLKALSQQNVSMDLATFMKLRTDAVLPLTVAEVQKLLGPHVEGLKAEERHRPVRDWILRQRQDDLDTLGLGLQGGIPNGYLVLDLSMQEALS
- assay_overview: ELISA on coated antigen, antibody 200 nM
reported_metric: OD450 (OD)
Reply numerically in OD, unit not repeated.

query: Tell me the measured OD450 of S009-F7.67.12 (antibody, human IgG1, kappa, V domains shown, Human-murine chimeric antibody, human IgG1 heavy and kappa light constant regions) VH: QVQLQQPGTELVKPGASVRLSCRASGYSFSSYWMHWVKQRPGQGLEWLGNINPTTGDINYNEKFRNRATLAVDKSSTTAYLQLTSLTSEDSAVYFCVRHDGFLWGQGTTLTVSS VL: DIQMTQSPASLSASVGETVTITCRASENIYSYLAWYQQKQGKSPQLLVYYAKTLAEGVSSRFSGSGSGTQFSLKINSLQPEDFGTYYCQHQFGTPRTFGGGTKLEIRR , please.
result: 2.75
